From: the supplement of paper PMC9732359

- procedure_summary: protein stability index of a GFP-peptide fusion (yeast GPS) (PSI 1-4); higher = more stable; sorted into four equal gates, so the index is relative within each strain
- run_parameters: ubr1∆
Form field: protein stability index (one value per entry).
Answer as a number with no unit attached.

Ask | I'd like to know its protein stability index. The sequence in question is QLKNVQLDSYLVNGFSQ [MED2]
Reply | 2.49

###

Form field: protein stability index (one value per entry).
- procedure_summary: protein stability index of a GFP-peptide fusion (yeast GPS) (PSI 1-4); higher = more stable; sorted into four equal gates, so the index is relative within each strain
- run_parameters: doa10∆
Answer as a number with no unit attached.

EAEMAYVKAVSDKAQLN [SMC4] = 2.62

Ask | I'd like to know its protein stability index. The sequence in question is LSPSDQFAPAFLNTPNN [SSN2]
Reply | 1.96

Ask | Next sequence: ILQIREEIPSKSWDDSV [RRP6]
Reply | 2.27

Ask | Next sequence: NVVPYHRNTSDYYYEDA [SWI1]
Reply | 2.85

Ask | Next sequence: QNSANNNSDDEDVDDEE [IRR1]
Reply | 3.28

Ask | Next sequence: ITSFGFGQKGGQAIVVH [FAS2]
Reply | 1.28

Ask | Next sequence: ILDITDEELVSHFVSAV [RPP0]
Reply | 2.99

Ask | Next sequence: IQAVFCLTKFQDEEQTE [YCG1]
Reply | 2.23

Ask | Next sequence: AHMSIGCLHKGKLISNL [YML031W/NDC1]
Reply | 2.04

###

- procedure_summary: protein stability index of a GFP-peptide fusion (yeast GPS) (PSI 1-4); higher = more stable; sorted into four equal gates, so the index is relative within each strain
- run_parameters: doa10∆
observation_type: protein stability index
Answer as a number with no unit attached.

VPYVLMGQIATFIYFAY [COB] = 1.38

Ask | I'd like to know its protein stability index. The sequence in question is IPVEILVRRLSDIKQGY [PRE9]
Reply | 2.95

Ask | Next sequence: GYMQKPVYATIGVETGS [PRP28]
Reply | 1.47

Ask | Next sequence: GALIHKAGLMTGGISGD [SMC1]
Reply | 2.63

Ask | Next sequence: LGYARFILLDRLRQFNL [SMC4]
Reply | 2.36

###

- procedure_summary: protein stability index of a GFP-peptide fusion (yeast GPS) (PSI 1-4); higher = more stable; sorted into four equal gates, so the index is relative within each strain
- run_parameters: ubr1∆
Form field: protein stability index (one value per entry).
Answer as a number with no unit attached.

Below, 6 sequences whose answers are already recorded.
KSGIPEFTPADPNLSFE [SSN2] = 3.25
AKFRLILIESRIHRLAR [RPS13] = 2.5
PHTVIRRKTTKQNSSSD [YDL088C/ASM4] = 2.9
SAGLFGSKPAGGTSLFG [YGL172W/NUP49] = 2.66
IQLLDENVGTRLLPINV [MED11] = 3.16
SLQSSSQTQLENANAAN [MED2] = 1.33

Ask | I'd like to know its protein stability index. The sequence in question is KSLLLNTLNIDNTARVI [BRN1]
Reply | 2.42

###

- procedure_summary: protein stability index of a GFP-peptide fusion (yeast GPS) (PSI 1-4); higher = more stable; sorted into four equal gates, so the index is relative within each strain
- run_parameters: ubr1∆
observation_type: protein stability index
Answer as a number with no unit attached.

CIIFMDEVDAIGGRRFS [RPT4] = 2.43
ERSKQLNEKFQELRKKV [SMC2] = 2.81
RAVLKSFLESVIRDSVT [HHF1] = 2.12
HYNDSQQLRTWKRQISY [SRB8] = 3.32

Ask | I'd like to know its protein stability index. The sequence in question is LSSGESNEIKVTNDLDT [SIR4]
Reply | 2.52

###

Form field: protein stability index (one value per entry).
- procedure_summary: protein stability index of a GFP-peptide fusion (yeast GPS) (PSI 1-4); higher = more stable; sorted into four equal gates, so the index is relative within each strain
- run_parameters: pdr5∆
Answer as a number with no unit attached.

Below, 4 sequences whose answers are already recorded.
PHTVIRRKTTKQNSSSD [YDL088C/ASM4] = 3.05
NTLNIDNTARVIFDASI [BRN1] = 2.28
LSVDDIRGAVGNSEAIP [RTT102] = 3.38
RRIIQNAQQTFHIDHTK [RPO21] = 2.89

Ask | I'd like to know its protein stability index. The sequence in question is HAQSKREGRHSGYGKRK [RPL19A]
Reply | 2.9

Ask | Next sequence: ITVTAKQQPTMQANKLD [SWI3]
Reply | 3.15

Ask | Next sequence: LTKYKEMERIVKNLTKY [SRP68]
Reply | 2.85

Ask | Next sequence: ADTLDPALLRPGRLDRK [RPT3]
Reply | 3.56

Ask | Next sequence: NATHDEDEFIVQHDQIL [SWP82]
Reply | 3.13

Ask | Next sequence: PTFVEFILIPLYKIFSY [SNU114]
Reply | 1.73

Ask | Next sequence: VVEKEKIESLAGGGESD [UBP6]
Reply | 2.84

Ask | Next sequence: AMLNLINDNNTRPYILE [YCG1]
Reply | 3.35

Ask | Next sequence: QVDKVTKEKVNGASVPI [RPL26A]
Reply | 3.3

Ask | Next sequence: SSKKSKRLDKVGKKKGG [LRP1]
Reply | 1.17

###

- procedure_summary: protein stability index of a GFP-peptide fusion (yeast GPS) (PSI 1-4); higher = more stable; sorted into four equal gates, so the index is relative within each strain
- run_parameters: doa10∆
Form field: protein stability index (one value per entry).
Answer as a number with no unit attached.

Below, 5 sequences whose answers are already recorded.
KDIRSTLASLIRYNSVE [RPC82] = 2.67
GVSLLALWKEKKEKPRS [RPS23A] = 3.12
AMLNLINDNNTRPYILE [YCG1] = 3.22
MSSAAEKKPASKAPAEK [HTB2] = 2.74
LKEYQSKIIVFPRNGKA [RPL13A] = 3.04

Ask | I'd like to know its protein stability index. The sequence in question is AQAQAQAQAQAQAAQAA [GAL11]
Reply | 2.91

Ask | Next sequence: DSTVNKSITLKGRNNES [YDL088C/ASM4]
Reply | 3.28

Ask | Next sequence: NTSVLMKLKLMIVYYKD [YCS4]
Reply | 1.56

Ask | Next sequence: QTQQDLPKVRYNVEKVK [NSL1]
Reply | 2.7

Ask | Next sequence: KVFSLDPQYLVDDLRPE [ASC1]
Reply | 2.94

###

- procedure_summary: protein stability index of a GFP-peptide fusion (yeast GPS) (PSI 1-4); higher = more stable; sorted into four equal gates, so the index is relative within each strain
- run_parameters: ubr1∆
observation_type: protein stability index
Answer as a number with no unit attached.

PPPPGFEEDSDLALPPP [PRP8] = 3.35
RKRPVPKGATYGKPTNQ [RPL15A] = 3.45
ASAKSVRSGVSKSAPSK [YAR002W/NUP60] = 2.99

Ask | I'd like to know its protein stability index. The sequence in question is TEEELQAAVPDNAEDDS [BRN1]
Reply | 3.02

Ask | Next sequence: EGDASPFTDITVEGISK [RPB2]
Reply | 3.07

Ask | Next sequence: VVDGTVVSCSQHGFEVQ [RPB7]
Reply | 3.28

Ask | Next sequence: HLRVRVHPFHVLRINKM [RPL10]
Reply | 1.27

Ask | Next sequence: FEYVLYPSKTLKTDGVR [FAS2]
Reply | 2.75

Ask | Next sequence: KFLKIASLKHDNETKAM [RPN3]
Reply | 3.17

###

- procedure_summary: protein stability index of a GFP-peptide fusion (yeast GPS) (PSI 1-4); higher = more stable; sorted into four equal gates, so the index is relative within each strain
- run_parameters: san1∆
Use protein stability index to assign classes; range list: group A = under 2, group B = from 2 up to 3, group C = 3 and over

VEPVTERTKLQEHTIFT [SNU114] = group A

Ask | Pick a category. Item: VISFGQPKLNPMASSSS [SWI1]
Reply | group B

Ask | Next sequence: DGKKHSVFYTILRDYGP [RPO31]
Reply | group C

Ask | Next sequence: ITSFDQDVDDAHAIDQM [POP8]
Reply | group A

Ask | Next sequence: KKSKIQLLDIAEFKKEN [LIN1]
Reply | group B

###

Form field: protein stability index (one value per entry).
- procedure_summary: protein stability index of a GFP-peptide fusion (yeast GPS) (PSI 1-4); higher = more stable; sorted into four equal gates, so the index is relative within each strain
- run_parameters: san1∆
Answer as a number with no unit attached.

Ask | I'd like to know its protein stability index. The sequence in question is STGLKSASDALKGRVVE [RPS1A]
Reply | 3.48

Ask | Next sequence: IIVKILYYRPHINKKSQ [GRR1]
Reply | 1.23

Ask | Next sequence: TSMTGDANLLEEGETSR [SWI3]
Reply | 3.2

Ask | Next sequence: KPTVILKLLKENIIQME [FAS1]
Reply | 1.24

Ask | Next sequence: TQVALNESEKDQWLEEY [UBP6]
Reply | 2.66

Ask | Next sequence: LVDILPPDSDSSISVMG [RPT3]
Reply | 2.24

Ask | Next sequence: NEIKQLGSDSSDGHNSE [SRB4]
Reply | 2.31

Ask | Next sequence: NDSFKGLITNKMWFDVQ [PRP8]
Reply | 3.03

Ask | Next sequence: GRVTFIPLNRLSLDSDV [SMC3]
Reply | 2.85

Ask | Next sequence: CEIHPSMILGVAASIIP [RPB2]
Reply | 1.14

Ask | Next sequence: HIMEPCIECQPKAMTDT [HRT1]
Reply | 2.94

Ask | Next sequence: EMARTKKACIIFFDEID [RPT1]
Reply | 2.54

Ask | Next sequence: VPVIVKARFVSKLAEEK [RPL28]
Reply | 2.79

Ask | Next sequence: YPRLQDPSRELNVIIDQ [YCS4]
Reply | 3.34

Ask | Next sequence: LERARDVNIVNRRLVYS [YCG1]
Reply | 1.72

Ask | Next sequence: RPSFQNNRISNANEISA [SWP82]
Reply | 1.99

Ask | Next sequence: RKAYFTAPSSERRVLLS [RPL26B]
Reply | 2.49

Ask | Next sequence: NYLKYLEYWCNPPYSQC [SOH1]
Reply | 2.18

Ask | Next sequence: NEDSKAFHTAVLRLNAI [NUT1]
Reply | 3.41

Ask | Next sequence: IYATFLNESDCLEACSF [YDL116W/NUP84]
Reply | 2.6

Ask | Next sequence: IKELEHLHDAVFVNTGL [SWP82]
Reply | 3.06

Ask | Next sequence: ARYNWICDPVHKHREAR [RPL15A]
Reply | 2.98

Ask | Next sequence: ESNIKMTLEDNNVTSNP [SSN2]
Reply | 2.68

Ask | Next sequence: PYQHPPNIFPNLTYYNE [ITC1]
Reply | 2.66

Ask | Next sequence: STSKFESQYPIVTEQPS [SWP82]
Reply | 2.41

Ask | Next sequence: HPAHVMWSVARAGQRGY [RPL3]
Reply | 1.5
